Assay: Single ascending dose study in healthy volunteers, plasma PK (Example 2)
Format: in vivo, human
Details: human, plasma, oral, 12 mg, fasted; mean; read-out: Vz/F
readout_type: Vd/F (L)
A number alone suffices; assume L.

Lab book: Vd/F of [2H][C@@](C)(NC(=O)COC(F)F)c1cc(F)cc(Cl)c1COc1cccc2c(-c3ncnn3C)cc(C)nc12 noted as 235

###

Test: Single ascending dose study in healthy volunteers, plasma PK (Example 2)
Format: in vivo, human
Details: human, plasma, oral, 4.5 mg, fasted; median; read-out: tmax
readout_type: Tmax

Lab book: Tmax of [2H][C@@](C)(NC(=O)COC(F)F)c1cc(F)cc(Cl)c1COc1cccc2c(-c3ncnn3C)cc(C)nc12 noted as 1 h
